Data origin: PubChem BioAssay (NCI)

Answer each item with its documented TGI.
# Tested on: UACC-257 melanoma
# assay.method.text: NCI tumour cell line growth inhibition, 48 h

Below, each entry is followed by its recorded TGI result.
Cc1ccc2cc3c(N)c4c(C)ccc(C)c4nc3nc2c1
28.6 µM
COc1ccc(C2=Nn3c(nnc3-c3ccccc3)S/C2=C\c2ccc(-c3ccc([N+](=O)[O-])cc3)o2)cc1
> 100 µM
O=C(Nc1ccc(OCc2nnc(-c3ccc(Cl)cc3)o2)c(F)c1)Nc1ccc(Cl)c(Cl)c1
> 100 µM
COC(=O)c1cc(CC2Cc3cc4c(cc3C2)CCC4)cc2c1CCC2
> 100 µM
Cc1cc2c(cc1C)[n+]([O-])c(NCCCN(C)C)c(C#N)[n+]2[O-]
> 100 µM

State the recorded TGI for every item in the following list.
1. C[Si](C)(C)/N=C1\N2C(=NC1(C(F)(F)F)C(F)(F)F)Sc1ccccc12
2. COc1ccc([C@H]2[C@H](C)C3=Nc4ccccc4CN32)cc1

-- reply
["> 50 µM", "> 100 µM"]

* * *

# System: OVCAR-5 ovarian
# assay.method.text: NCI tumour cell line growth inhibition, 48 h
Hi there, I'd appreciate the recorded TGI for every entry that follows.

Known results for molecules:
CCCCSC(=CC(=O)c1cccc(C(=O)C=C(SCCCC)SCCCC)n1)SCCCC
> 100 µM
COC(=O)c1c(O)ccc2c1c1c(n2CCc2ccccc2)C(=O)c2ccccc2C1=O
37.7 µM
Cc1cc(C)nc(NS(=O)(=O)c2ccc(NNc3c4ccccc4nc4c(C(=O)Nc5ccc(S(=O)(=O)N=C(N)N)cc5)cccc34)cc2)n1
> 100 µM
COCn1cnc2c(=O)n(-c3ccc(C)cc3)c(=S)n(-c3ccc(C)cc3)c21
> 100 µM
CCCCCc1cccc(=O)o1
> 100 µM

Okay, here is my list. What is TGI for each of these?
1. COC(=O)c1ccc2[nH]c(O)c(C(=Nc3ccc(N(C)C(=O)CN4CCN(C)CC4)cc3)c3ccc(OC)cc3)c2c1
2. COc1ccc(/C(COc2ccc3c(c2)oc(=O)c2cc(OC)ccc23)=N/O)cc1

-- reply
17.6 µM
> 100 µM

* * *

# Tested on: SR leukemia
# assay.method.text: NCI tumour cell line growth inhibition, 48 h
Provide the reported TGI of each item.

N#Cc1nc(-c2ccccc2C(=O)O)oc1N
> 100 µM
Cc1cc2c(cc1C)[n+]([O-])c(NCCCN(C)C)c(C#N)[n+]2[O-]
> 100 µM
O=C(CCc1ccc(O)cc1)NCCc1cccc(O)c1
> 50 µM

Please report TGI for every entry that follows.
1. COC12COC(=O)C1C(c1ccc3c(c1)OCO3)c1cc3c(cc1O2)OCO3 (stereo not given)
2. Cc1nc2ccccn2c1NC(=O)NNC(=S)Nc1ccc(Cl)cc1

-- reply
> 100 µM
> 100 µM

* * *

Assignment: determine reported GI50 for the given molecules.
# Test system: IGROV1 ovarian
# assay.method.text: NCI tumour cell line growth inhibition, 48 h

Examples from the recorded data:
CC(C)OC(=O)Nc1ccc(-c2nc(-c3cccc(OCCN4CCOCC4)c3)c(-c3ccnc(Br)c3)[nH]2)cc1
4.39 µM
CCCCCCC[CH2][Sn]([Cl])([Cl])[CH2]CCCCCCC
7.61 µM
CCCOC(=O)c1ccc2c(c1)[N+](=O)C(C(=O)c1ccccc1)=C(C(F)(F)F)[N+]2=O
1.83 µM

I'm hoping you can list GI50 for every molecule here, please.
1. COc1cc(C(=O)/C=C/c2c(C)n([O-])c3ccc(C(F)(F)F)cc3[n+]2=O)cc(OC)c1OC
2. CCOC(=O)Nc1nc2cc(OC)c(OC)c(OC)c2s1
3. CC(=O)N1CCN([C@H]2CCC[C@@H](NC(=O)c3cc4c(F)ccc(C)c4[nH]3)C2)CC1

-- reply
1. 7.54 µM
2. 91 µM
3. 4.83 µM

* * *

# Tested on: LOX IMVI melanoma
# assay.method.text: NCI tumour cell line growth inhibition, 48 h
Please go through the items and note down their TGI.

COc1cc(/C=C2\N=C(c3ccccc3)N(c3cc4cc(Sc5ccccc5)ccc4[nH]3)C2=O)cc(OC)c1OC
22.2 µM
O=C1CC(c2ccccc2Cl)C2(C(=O)NC(=S)NC2=O)C(c2ccccc2Cl)C1 (configuration not stated)
36.4 µM
COC12COC(=O)C1C(c1ccc3c(c1)OCO3)c1cc3c(cc1O2)OCO3 (configuration not stated)
> 100 µM
O=S(CCc1ccccc1)Nc1ccccc1 (configuration not stated)
> 100 µM
COC(=O)C(C(=O)C(=O)Nc1nc(=S)[nH][nH]1)c1csc(N)n1 (configuration not stated)
> 100 µM

Please give TGI, item by item, for the list that follows.
1. COC(=O)C1SC(N(C)c2ccccc2)=NC12c1ccccc1Nc1ccccc12 (configuration not stated)
2. Cc1nc(Nc2ccc(Cl)cc2Cl)sc1C(=O)Nc1ccccc1
3. O=C(CSCC(=O)N/N=C\c1cc(Cl)cc(Cl)c1O)N/N=C\c1cc(Cl)cc(Cl)c1O
4. CC(C)CC(N=Cc1nc(-c2ccccc2)oc1O)C(=O)O (configuration not stated)
5. CC(C)(C)N1C(=O)N=[N+](/C(=C(\c2ccccc2)n2nc([O-])n(C(C)(C)C)c2=O)c2ccccc2)C1=O
6. N#CC1=C(Cl)NC(Cl)=C(C#N)C1c1ccc(Cl)cc1
7. O=C(N/N=C\c1c(O)ccc2ccccc12)c1ccncc1
8. O=C(c1ccccc1)c1ccc2nc(-c3c(Cl)c(Cl)c(Cl)c(Cl)c3C(=O)N/N=C\C=C\c3ccccc3)[nH]c2c1

-- reply
["50.8 µM", "> 100 µM", "10.8 µM", "> 100 µM", "> 100 µM", "29.6 µM", "> 25 µM", "> 100 µM"]

* * *

# System: XF 498 CNS
# assay.method.text: NCI tumour cell line growth inhibition, 48 h
Provide the reported TGI of each item.

Example entries and their recorded answers appear below.
CCCCCC(=O)OCCOCCOCCOCCOCCOCc1ccccc1
> 100 µM
NC1CCCCC1N.O=NN1CCCCCC1(P(=O)([O-])[O-])P(=O)([O-])[O-].[Na+].[Pt+2]
> 100 µM

We next turn to a different compound, shown below.
-- ask Data request, read-out TGI, for Nc1ccc(N)c2c1C(=O)c1ccccc1C2=O
-- reply > 100 µM

* * *

# Tested on: KM20L2 colon
# assay.method.text: NCI tumour cell line growth inhibition, 48 h
What TGI was measured for each of the following?

Example results:
CN(C)c1nc(N(C)C)sc(=O)n1
> 100 µM
CNS(=O)(=O)NN(C)S(=O)(=O)c1ccc(OC)cc1
> 100 µM

Query compound follows.
-- ask Returns the measured TGI for the input compound. Input: CC12CCC3(C1)[C@H](CC2=O)C[C@@H](OC(=O)c1ccccc1)C1C(C)(CO)CCC[C@@]13C (stereo partly drawn)
-- reply > 100 µM

* * *

# Tested on: MALME-3M melanoma
# assay.method.text: NCI tumour cell line growth inhibition, 48 h
property.measured: TGI

CC(=O)Nc1cccc(C#Cc2cncnc2Nc2ccc(OCc3cccc(F)c3)c(Cl)c2)n1
> 25 µM

Quick request: TGI for each listed item, please.
1. NS(=O)(=O)c1ccc(N=Nc2ncccc2O)cc1
2. CC1=C(/C=C/C(C)=C/C=C/C(C)=C/C=C/C=C(C)/C=C/C=C(C)/C=C/C=C(C)/C=C/C=C(\C)C(=O)O)C(C)(C)CCC1
3. COc1ccccc1NCc1nnc(CCCCCCCCc2nnc(CNc3ccccc3OC)o2)o1
4. Clc1ccc(-c2noc(CN3CCCCC3)n2)cc1
5. CC(C)(NO)/C(=N\O)c1ccco1
6. Cc1cn(C(=O)NC23CC4CC(CC(C4)C2)C3)c(=O)[nH]c1=O
7. COc1cc(/C=C2/SC(c3ccccc3)N(c3cc(Cl)ccc3Cl)C2=O)cc(OC)c1OC (configuration not stated)
8. Cc1ccc(N=Nc2c(-c3ccccc3)nn(C(=O)CC(=O)Nc3ccc(Cl)cc3)c2-c2ccccc2)cc1

-- reply
["> 100 µM", "> 100 µM", "> 100 µM", "> 100 µM", "> 100 µM", "> 100 µM", "> 100 µM", "> 100 µM"]

* * *

# System: KM12 colon
# assay.method.text: NCI tumour cell line growth inhibition, 48 h
I'd appreciate it if you could supply TGI values for the items below.

Study these solved cases before continuing.
CCOC(=O)c1ccc2c(c1)c1c(C)c3cnccc3c(C)c1n2C
1.03 µM
C=CCSSC1N=CNc2nc[nH]c21 (stereo not given)
> 43.6 µM
CCc1ccccc1N1C(=O)C(=O)C(c2nc3ccccc3s2)C(=O)C1=O
> 100 µM
CCOP(=O)(OCC)OC1c2[nH]ccc2-c2cc(C(=O)OC)[nH]c2C1OC (stereo not given)
> 100 µM
Cc1cc2c(cc1C)[n+]([O-])c(NCCCN(C)C)c(C#N)[n+]2[O-]
> 100 µM

Go through the list and state TGI for each entry.
1. Nc1ccc(N)c2c1C(=O)c1ccccc1C2=O
2. COc1ccc(OC)c2c(C(=O)O)c(C(C)c3ccccc3)ccc12 (stereo not given)
3. C#Cc1nc(N)c2ncn(C3OC(COS(N)(=O)=O)C(O)C3O)c2n1 (stereo not given)
4. O=C1OC(c2cccc(C(F)(F)F)c2)(c2cccc(C(F)(F)F)c2)c2ccc3ccccc3c21
5. CC(C)C(O)(C(=O)OCN1C(=O)C2C3C=CC(C2C1=O)C1C2C(=O)N(COC(=O)C(O)(C(C)C)C(C)O)C(=O)C2C31)C(C)O (stereo not given)

-- reply
> 100 µM
> 100 µM
0.352 µM
> 100 µM
> 100 µM
